Test system: NCI-H727 (Other Solid Carcinomas)
Assay: combination Emax (second highest fraction inhibited in the dose matrix, 72 h); higher = more inhibition; extreme values may be limits of the assay
Label rule, in plain words: combination Emax of 0.2 and up is true, under 0.2 is false.

• CC1(C)CCC(CN2CCN(c3ccc(C(=O)NS(=O)(=O)c4ccc(NCC5CCOCC5)c([N+](=O)[O-])c4)c(Oc4cnc5[nH]ccc5c4)c3)CC2)=C(c2ccc(Cl)cc2)C1 [Venetoclax] + Cc1cc2ncnn2cc1Nc1ncc2c(n1)n(C1CCOCC1)c(=O)n2C [AZD7648] (first compound max 1 µM, 7x7, partner max 10 µM) = true
• CC1(C)CCC(CN2CCN(c3ccc(C(=O)NS(=O)(=O)c4ccc(NCC5CCOCC5)c([N+](=O)[O-])c4)c(Oc4cnc5[nH]ccc5c4)c3)CC2)=C(c2ccc(Cl)cc2)C1 [Venetoclax] + CCN(CCO)CCCOc1ccc2c(Nc3cc(CC(=O)Nc4cccc(F)c4)[nH]n3)ncnc2c1 [AZD2811] (first compound max 1 µM, 7x7, partner max 1 µM) = true
• C=CCn1c(=O)c2cnc(Nc3ccc(N4CCN(C)CC4)cc3)nc2n1-c1cccc(C(C)(C)O)n1 [AZD1775] + C[C@@H]1COCCN1C2=NC(=NC(=C2)C3(CC3)[S@](=N)(=O)C)C4=C5C=CNC5=NC=C4 [AZD6738] (first compound max 1 µM, partner max 10 µM) = true

Test whether the compound Cc1cc2ncnn2cc1Nc1ncc2c(n1)n(C1CCOCC1)c(=O)n2C [AZD7648] + O=C(c1cc(Cc2n[nH]c(=O)c3ccccc23)ccc1F)N1CCN(C(=O)C2CC2)CC1 [Olaparib] (first compound max 10 µM, 7x7, partner max 10 µM) records combination Emax of 0.2 or higher.
true

Test whether the compound O=C(c1cc(Cc2n[nH]c(=O)c3ccccc23)ccc1F)N1CCN(C(=O)C2CC2)CC1 [Olaparib] + CC1(C)CCC(CN2CCN(c3ccc(C(=O)NS(=O)(=O)c4ccc(NCC5CCOCC5)c([N+](=O)[O-])c4)c(Oc4cnc5[nH]ccc5c4)c3)CC2)=C(c2ccc(Cl)cc2)C1 [Venetoclax] (first compound max 10 µM, 7x7, partner max 1 µM) records combination Emax of 0.2 or higher.
false

Test whether the compound COc1cc2ncnc(Nc3ccc(F)c(Cl)c3)c2cc1OCCCN1CCOCC1 [Gefitinib] + CC(C)n1c(=O)n(C)c2cnc3cc(F)c(-c4ccc(OCCCN5CCCCC5)nc4)cc3c21 [AZD1390] (first compound max 10 µM, 7x7, partner max 0.3 µM) records combination Emax of 0.2 or higher.
false

Test whether the compound NC1(C(=O)N[C@@H](CCO)c2ccc(Cl)cc2)CCN(c2ncnc3[nH]ccc23)CC1 [Capivasertib] + CC(C)n1c(=O)n(C)c2cnc3cc(F)c(-c4ccc(OCCCN5CCCCC5)nc4)cc3c21 [AZD1390] (first compound max 10 µM, 7x7, partner max 0.3 µM) records combination Emax of 0.2 or higher.
true
